System: full length human vWF (SEQ ID NO 7)
Assay: dot blot KD determination and extent of binding, full length human vWF;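 also: dot blot binding of aptamers to full length human vWF across a protein titration, incubated 30 minutes at room temperature in 1x DPBS with BSA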
Settings: in words; dot blot
[invdT] = inverted (3'-3') thymidine
ASSAY METRIC: binding to human vWF

dGdGdCdGTdGdCdAdGTdGdCdCTTdCdGdGdCdCdGTdGdCdGdGTdGdCdCTdCdCdGTdCdAdCdGdCdC-3T (DNA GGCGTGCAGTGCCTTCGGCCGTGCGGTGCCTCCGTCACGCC; DNA, [invdT] at 3' end, backbone and methylation of C not given here) [ARC1172, ARC1115 with 3'-inverted dT]: shown to bind
ARC1115: ARC1029 with PEG spacer replaced with a short oligonucleotide sequence, dTdTdC (DNA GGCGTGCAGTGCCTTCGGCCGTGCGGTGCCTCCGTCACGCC; unmodified DNA): shown to bind
